Measured values drawn from patent US11628228B2 for this set.

test system: S180-bearing mice; assay: Bio-distribution in tumor-bearing mice; assay type: in vivo; settings: S180-bearing mice, tail vein, 120 min
measurement.name: Liver uptake (% ID/g)
Reply numerically in % ID/g, unit not repeated.

The cases that follow already have their Liver uptake on record.
{"compound": "O=C(CCCCC[N+]#[C][99Tc-5]([C]#[N+]CCCCCC(=O)NC1C(O)OC(CO)C(O)C1O)([C]#[N+]CCCCCC(=O)NC1C(O)OC(CO)C(O)C1O)([C]#[N+]CCCCCC(=O)NC1C(O)OC(CO)C(O)C1O)([C]#[N+]CCCCCC(=O)NC1C(O)OC(CO)C(O)C1O)[C]#[N+]CCCCCC(=O)NC1C(O)OC(CO)C(O)C1O)NC1C(O)OC(CO)C(O)C1O (stereo not shown) [[^99mTc-(CN5DG)6]^+]", "Liver uptake (% ID/g)": 0.34}
{"compound": "O=C(CCC[N+]#[C][99Tc-5]([C]#[N+]CCCC(=O)NC1C(O)OC(CO)C(O)C1O)([C]#[N+]CCCC(=O)NC1C(O)OC(CO)C(O)C1O)([C]#[N+]CCCC(=O)NC1C(O)OC(CO)C(O)C1O)([C]#[N+]CCCC(=O)NC1C(O)OC(CO)C(O)C1O)[C]#[N+]CCCC(=O)NC1C(O)OC(CO)C(O)C1O)NC1C(O)OC(CO)C(O)C1O (stereo not shown) [[^99mTc-(CN3DG)6]^+]", "Liver uptake (% ID/g)": 0.28}

**Query** Which measured Liver uptake value corresponds to O=C(CC[N+]#[C][99Tc-5]([C]#[N+]CCC(=O)NC1C(O)OC(CO)C(O)C1O)([C]#[N+]CCC(=O)NC1C(O)OC(CO)C(O)C1O)([C]#[N+]CCC(=O)NC1C(O)OC(CO)C(O)C1O)([C]#[N+]CCC(=O)NC1C(O)OC(CO)C(O)C1O)[C]#[N+]CCC(=O)NC1C(O)OC(CO)C(O)C1O)NC1C(O)OC(CO)C(O)C1O (stereo not shown) [[^99mTc-(CN2DG)6]^+] ?
**Result** 0.09

**Query** What measured Liver uptake goes with O=C(CCCC[N+]#[C][99Tc-5]([C]#[N+]CCCCC(=O)NC1C(O)OC(CO)C(O)C1O)([C]#[N+]CCCCC(=O)NC1C(O)OC(CO)C(O)C1O)([C]#[N+]CCCCC(=O)NC1C(O)OC(CO)C(O)C1O)([C]#[N+]CCCCC(=O)NC1C(O)OC(CO)C(O)C1O)[C]#[N+]CCCCC(=O)NC1C(O)OC(CO)C(O)C1O)NC1C(O)OC(CO)C(O)C1O (stereo not shown) [[^99mTc-(CN4DG)6]^+] ?
**Result** 0.17

* * *

Recorded Tumor/blood ratio by entry
test system: S180-bearing mice; assay: Bio-distribution in tumor-bearing mice; type: in vivo; details: S180-bearing mice, tail vein, 120 min
// no unit, no text: just the number

**Query** Requested read-out: Tumor/blood ratio. Entry: O=C(CCCC[N+]#[C][99Tc-5]([C]#[N+]CCCCC(=O)NC1C(O)OC(CO)C(O)C1O)([C]#[N+]CCCCC(=O)NC1C(O)OC(CO)C(O)C1O)([C]#[N+]CCCCC(=O)NC1C(O)OC(CO)C(O)C1O)([C]#[N+]CCCCC(=O)NC1C(O)OC(CO)C(O)C1O)[C]#[N+]CCCCC(=O)NC1C(O)OC(CO)C(O)C1O)NC1C(O)OC(CO)C(O)C1O (stereo not shown) [[^99mTc-(CN4DG)6]^+]
**Result** 15.00
